# Tested on: Escherichia coli TOP10
# MEASUREMENT_NOTES: shrunken log2 fold change of peptide-encoding DNA abundance (4.5 h post-induction vs induction); higher = less antimicrobial activity (less host growth inhibition)
# EXPERIMENTAL_SETUP: time post-induction: 4.5 h; library: site-saturation at positions 5, 18, 19, 20
Label rule met when shrunken log2 fold change is at or above -0.08; otherwise label rule not met.

[
  {
    "SEQUENCE_TEXT": "RRIRFRPPRLPRPRPRPCNTPRP",
    "ASSIGNED_CLASS": "rule met"
  },
  {
    "SEQUENCE_TEXT": "RRIRLRPPRLPRPRPRPENAPRP",
    "ASSIGNED_CLASS": "rule met"
  },
  {
    "SEQUENCE_TEXT": "RRIRIRPPRLPRPRPRPTLGPRP",
    "ASSIGNED_CLASS": "rule not met"
  },
  {
    "SEQUENCE_TEXT": "RRIRERPPRLPRPRPRPATQPRP",
    "ASSIGNED_CLASS": "rule met"
  },
  {
    "SEQUENCE_TEXT": "RRIRARPPRLPRPRPRPPKRPRP",
    "ASSIGNED_CLASS": "rule met"
  },
  {
    "SEQUENCE_TEXT": "RRIRYRPPRLPRPRPRPEFIPRP",
    "ASSIGNED_CLASS": "rule not met"
  },
  {
    "SEQUENCE_TEXT": "RRIRDRPPRLPRPRPRPGQIPRP",
    "ASSIGNED_CLASS": "rule met"
  },
  {
    "SEQUENCE_TEXT": "RRIRMRPPRLPRPRPRPFCGPRP",
    "ASSIGNED_CLASS": "rule met"
  },
  {
    "SEQUENCE_TEXT": "RRIRERPPRLPRPRPRPHSCPRP",
    "ASSIGNED_CLASS": "rule met"
  },
  {
    "SEQUENCE_TEXT": "RRIRWRPPRLPRPRPRPVIIPRP",
    "ASSIGNED_CLASS": "rule not met"
  },
  {
    "SEQUENCE_TEXT": "RRIRPRPPRLPRPRPRPPWAPRP",
    "ASSIGNED_CLASS": "rule met"
  },
  {
    "SEQUENCE_TEXT": "RRIRSRPPRLPRPRPRPFMDPRP",
    "ASSIGNED_CLASS": "rule not met"
  },
  {
    "SEQUENCE_TEXT": "RRIRVRPPRLPRPRPRPGKHPRP",
    "ASSIGNED_CLASS": "rule not met"
  },
  {
    "SEQUENCE_TEXT": "RRIRMRPPRLPRPRPRPGIDPRP",
    "ASSIGNED_CLASS": "rule met"
  },
  {
    "SEQUENCE_TEXT": "RRIRFRPPRLPRPRPRPKPNPRP",
    "ASSIGNED_CLASS": "rule met"
  },
  {
    "SEQUENCE_TEXT": "RRIRIRPPRLPRPRPRPCVDPRP",
    "ASSIGNED_CLASS": "rule not met"
  },
  {
    "SEQUENCE_TEXT": "RRIRARPPRLPRPRPRPVVAPRP",
    "ASSIGNED_CLASS": "rule met"
  },
  {
    "SEQUENCE_TEXT": "RRIRHRPPRLPRPRPRPRKIPRP",
    "ASSIGNED_CLASS": "rule met"
  }
]

###

# Test system: Escherichia coli TOP10;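 note: peptides expressed intracellularly from a pBAD plasmid library in pooled LB shake-flask culture, induced with 0.3% L-arabinose, DNA abundance read by NGS, three biological replicates, DESeq2 with apeglm shrinkage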
# MEASUREMENT_NOTES: shrunken log2 fold change of peptide-encoding DNA abundance (4.5 h post-induction vs induction); higher = less antimicrobial activity (less host growth inhibition)
# EXPERIMENTAL_SETUP: time post-induction: 4.5 h; library: site-saturation at positions 5, 18, 19, 20
Label yes (1) when shrunken log2 fold change is at or above 0.0004; otherwise label no (0).

[
  {
    "SEQUENCE_TEXT": "RRIRVRPPRLPRPRPRPDGRPRP",
    "ASSIGNED_CLASS": "yes (1)"
  },
  {
    "SEQUENCE_TEXT": "RRIRWRPPRLPRPRPRPVCEPRP",
    "ASSIGNED_CLASS": "yes (1)"
  },
  {
    "SEQUENCE_TEXT": "RRIRYRPPRLPRPRPRPMRHPRP",
    "ASSIGNED_CLASS": "no (0)"
  },
  {
    "SEQUENCE_TEXT": "RRIRNRPPRLPRPRPRPEQLPRP",
    "ASSIGNED_CLASS": "yes (1)"
  },
  {
    "SEQUENCE_TEXT": "RRIRKRPPRLPRPRPRPDGFPRP",
    "ASSIGNED_CLASS": "yes (1)"
  },
  {
    "SEQUENCE_TEXT": "RRIRNRPPRLPRPRPRPKPCPRP",
    "ASSIGNED_CLASS": "yes (1)"
  },
  {
    "SEQUENCE_TEXT": "RRIRTRPPRLPRPRPRPWVYPRP",
    "ASSIGNED_CLASS": "no (0)"
  },
  {
    "SEQUENCE_TEXT": "RRIRVRPPRLPRPRPRPKNPPRP",
    "ASSIGNED_CLASS": "no (0)"
  },
  {
    "SEQUENCE_TEXT": "RRIRDRPPRLPRPRPRPTKAPRP",
    "ASSIGNED_CLASS": "yes (1)"
  },
  {
    "SEQUENCE_TEXT": "RRIRFRPPRLPRPRPRPETFPRP",
    "ASSIGNED_CLASS": "no (0)"
  },
  {
    "SEQUENCE_TEXT": "RRIRHRPPRLPRPRPRPLTPPRP",
    "ASSIGNED_CLASS": "no (0)"
  },
  {
    "SEQUENCE_TEXT": "RRIRHRPPRLPRPRPRPDRLPRP",
    "ASSIGNED_CLASS": "no (0)"
  },
  {
    "SEQUENCE_TEXT": "RRIRYRPPRLPRPRPRPEDPPRP",
    "ASSIGNED_CLASS": "no (0)"
  },
  {
    "SEQUENCE_TEXT": "RRIRDRPPRLPRPRPRPTEEPRP",
    "ASSIGNED_CLASS": "yes (1)"
  },
  {
    "SEQUENCE_TEXT": "RRIRSRPPRLPRPRPRPGGLPRP",
    "ASSIGNED_CLASS": "yes (1)"
  },
  {
    "SEQUENCE_TEXT": "RRIRSRPPRLPRPRPRPKTAPRP",
    "ASSIGNED_CLASS": "yes (1)"
  },
  {
    "SEQUENCE_TEXT": "RRIRMRPPRLPRPRPRPYSRPRP",
    "ASSIGNED_CLASS": "no (0)"
  },
  {
    "SEQUENCE_TEXT": "RRIRIRPPRLPRPRPRPNIMPRP",
    "ASSIGNED_CLASS": "no (0)"
  },
  {
    "SEQUENCE_TEXT": "RRIRNRPPRLPRPRPRPSMKPRP",
    "ASSIGNED_CLASS": "no (0)"
  },
  {
    "SEQUENCE_TEXT": "RRIRIRPPRLPRPRPRPWHFPRP",
    "ASSIGNED_CLASS": "no (0)"
  },
  {
    "SEQUENCE_TEXT": "RRIRPRPPRLPRPRPRPWCIPRP",
    "ASSIGNED_CLASS": "no (0)"
  }
]
